- system: Human immunodeficiency virus type 1 integrase (Human immunodeficiency virus 1, UniProt Q7ZJM1)
- Sequence (Q7ZJM1 whole entry): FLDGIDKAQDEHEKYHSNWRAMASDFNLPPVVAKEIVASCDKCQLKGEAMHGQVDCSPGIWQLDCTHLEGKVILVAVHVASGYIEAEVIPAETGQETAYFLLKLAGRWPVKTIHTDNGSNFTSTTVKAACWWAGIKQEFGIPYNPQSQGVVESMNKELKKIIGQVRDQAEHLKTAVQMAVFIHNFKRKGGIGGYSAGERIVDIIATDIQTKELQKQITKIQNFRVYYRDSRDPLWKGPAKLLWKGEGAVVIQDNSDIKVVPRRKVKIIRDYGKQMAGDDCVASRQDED
pIC50: −log10 of the molar value.
quantity measured: pIC50

O=C(NCc1ccc(F)cc1)c1nc2c3ccccc3[nH]n2c(=O)c1O ... < 5.00
O=C(NCc1ccc(F)cc1)c1nc2c3ccccc3on2c(=O)c1O ... < 5.00
Cn1ccc2nc(C(=O)NCc3ccc(F)cc3)c(O)c(=O)n21 ... < 4.52
COc1cccc2c1sc1nc(C(=O)NCc3ccc(F)cc3)c(O)c(=O)n12 ... < 4.30
Cc1cn2c(=O)c(O)c(C(=O)NCc3ccc(F)cc3)nc2s1 ... 5.37

input: Would you kindly share the measured pIC50 for O=C(NCc1ccc(F)cc1)c1nc2sc3ccccc3n2c(=O)c1O ?
output: < 4.52

* * *

- system: Human immunodeficiency virus type 1 integrase (Human immunodeficiency virus 1, UniProt Q7ZJM1)
quantity measured: IC50 (nM)

O=C(NCc1ccc(F)cc1)c1nc2c(OCc3ccc(F)cc3)cc(N3CCOCC3)cn2c(=O)c1O ... 275
O=C(NCc1ccc(F)cc1)c1nc2ccc(Br)cn2c(=O)c1O ... 445
O=C(NCc1ccc(F)cc1)c1nc2c(Cl)cc(N3CCOCC3)cn2c(=O)c1O ... 135
COc1cc(N2CCOCC2)cn2c(=O)c(O)c(C(=O)NCc3ccc(F)cc3)nc12 ... 170
Cn1c2ccccc2c2nc(C(=O)NCc3ccc(F)cc3)c(O)c(=O)n21 ... 626

A. N#Cc1c[nH]n2c(=O)c(O)c(C(=O)NCc3ccc(F)cc3)nc12
B. O=C(NCc1ccc(F)cc1)c1nc2c(N3CCCS3(=O)=O)cc(N3CCOCC3)cn2c(=O)c1O
input: Hi there, can you help? I need to know whether A or B has lower measured IC50. Please indicate the selected item by its label.
output: B
(B: 195 nM, A: 13700 nM)

* * *

EC50 for assorted molecules
- Tested on: Human immunodeficiency virus 1
- assay procedure: Antiviral activity against HIV1 NL4-3 infected in human Hut78 cells assessed as inhibition of viral replication in 50 % normal human serum
- Type: functional, organism-based
- experimental parameters: Human immunodeficiency virus 1, NL4-3, HuT78, Serum
Please state the figure in nM; there is no need to write the unit.

COc1cc(N2CCOCC2)cn2c(=O)c(O)c(C(=O)NCc3ccc(F)cc3)nc12 ... 1400
O=C(NCc1ccc(F)cc1)c1nc2c(N3CCOCC3)cc(N3CCOCC3)cn2c(=O)c1O ... 1550
CN1CCN(c2cc(N(C)S(C)(=O)=O)c3nc(C(=O)NCc4ccc(F)cc4)c(O)c(=O)n3c2)CC1 ... 61.5
O=C(NCc1ccc(F)cc1)c1nc2c(Cl)cc(N3CCOCC3)cn2c(=O)c1O ... 158
CN1CCN(c2cc(N3CCN(C)S3(=O)=O)c3nc(C(=O)NCc4ccc(F)cc4)c(O)c(=O)n3c2)CC1 ... 4
Cc1nnc(C(=O)NC(C)(C)c2nc(C(=O)NCc3ccc(F)cc3)c(O)c(=O)n2C)o1 ... 7.1
O=C(NCc1ccc(F)cc1)c1nc2c(N3CCCS3(=O)=O)cc(N3CCNCC3)cn2c(=O)c1O ... 43
O=C(NCc1ccc(F)cc1)c1nc2c(I)cc(N3CCOCC3)cn2c(=O)c1O ... 50

input: Would you kindly share the measured EC50 for CC(=O)N1CCN(c2cc(Br)c3nc(C(=O)NCc4ccc(F)cc4)c(O)c(=O)n3c2)CC1 ?
output: 40

input: What would you report for O=C(NCc1ccc(F)cc1)c1nc2c(N3CCCS3(=O)=O)cc(N3CCOCC3)cn2c(=O)c1O ?
output: 18

input: What would you report for O=C(NCc1ccc(F)cc1)c1nc2c(Br)cc(N3CCOCC3)cn2c(=O)c1O ?
output: 70

input: What would you report for O=C(NCc1cc(Cl)cc(Cl)c1)c1nc2c(N3CCCS3(=O)=O)cc(N3CCOCC3)cn2c(=O)c1O ?
output: 43

input: What would you report for O=C(NCc1ccc(F)cc1)c1nc2c(OCC3CC3)cc(N3CCOCC3)cn2c(=O)c1O ?
output: 590

* * *

- system: Human immunodeficiency virus type 1 integrase (Human immunodeficiency virus 1, UniProt Q7ZJM1)
pIC50: −log10 of the molar value.
quantity measured: pIC50

The examples below pair each entry with its known result.
CC(=O)N1CCN(c2cc(Br)c3nc(C(=O)NCc4ccc(F)cc4)c(O)c(=O)n3c2)CC1 ... 6.96
O=C(NCc1ccc(F)cc1)c1nc2sccn2c(=O)c1O ... 4.48
O=C(NCc1ccc(F)cc1)c1nc2c(I)cc(N3CCOCC3)cn2c(=O)c1O ... 7.07

P. Cc1cc2nc(C(=O)NCc3ccc(F)cc3)c(O)c(=O)n2o1
Q. O=C(NCc1ccc(F)cc1)c1nc2c(N3CCOCC3)cc(N3CCOCC3)cn2c(=O)c1O
R. Cn1c2ccccc2n2c(=O)c(O)c(C(=O)NCc3ccc(F)cc3)nc12
input: Sequence the entries by pIC50, beginning with the highest number. Sort and list the labels as requested.
output: Q, P, R
